- Test description: Lipophilicity, LogD at pH 7.4 of the compound by shake flask method
- Format: physicochemical
- Measurement context: buffer
Param threshold (2) applies to logD; output true (1) when value >= threshold, false (0) when value < threshold.

Could you tell me if the measured logD of Cc1ncncc1-c1ccc2nc(Nc3cnn(C4CCN(C)CC4)c3)nc(OC3(C)CC3)c2n1 reaches 2 or more?
false (0)

Would you say Cc1ncc(-c2nc3c(OC4(C)CC4)nc(Nc4cnn([C@@H]5C[C@H]6C[C@@H]5CN6C)c4)nc3cc2F)cn1 shows logD at minimum 2?
false (0)

Form field: logD at least 2? Entry: Cc1ncc(-c2nc3c(OC4(C)CC4)nc(Nc4cnn(C5CCN(C)CC5)c4)nc3cc2F)cn1
true (1)

For this compound, is measured logD 2 or higher? N#CCc1ccc2nc(Nc3cnn(C4CCOCC4)c3)nc(NC3CCOCC3)c2n1
false (0)

Is the recorded value of logD equal to or greater than 2 for this compound? Cc1ncc(-c2nc3c(OC4(C)CC4)nc(Nc4cnn([C@@H]5C[C@@H]6C[C@H]5CN6C)c4)nc3cc2F)cn1
false (0)

Entry CN1CCC(n2cc(Nc3nc(OC4(C)CC4)c4nc(C(=O)N(C)C)ccc4n3)cn2)CC1 : is its logD no less than 2?
false (0)

Is logD for CN1CC2(CC(n3cc(Nc4nc(OC5(C)CC5)c5nc(C6CC6)c(F)cc5n4)cn3)C2)C1 at or above 2?
true (1)

Hi, just wondering whether Cn1cc(Nc2nc(N[C@@H]3CCOC3)c3nc(CC#N)ccc3n2)cn1 shows logD of 2 or higher.
false (0)
